Recorded values, source patent US20230322846A9.

biological target: [35S]-TBPS binding, rat brain cortical membranes; assay: Steroid inhibition of [35S]-TBPS binding; conditions: 3 nM [35S]-TBPS, in the presence of 5 mM GABA
pIC50: −log10 of the molar value.
Assign pIC50 to each entry below.

COC[C@@]1(O)CC[C@H]2[C@H](CC[C@@H]3[C@@H]2CC[C@]2(C)[C@@H](CNC(=O)c4ccccc4)CC[C@@H]32)C1 [Example 16]
> 7.00

Hi, could you look up pIC50 for each item in my list?
1. COC[C@@]1(O)CC[C@H]2[C@H](CC[C@@H]3[C@@H]2CC[C@]2(C)[C@@H]([C@H](C)NC(=O)c4ccc(F)cn4)CC[C@@H]32)C1 [Example 126]
2. COC[C@@]1(O)CC[C@H]2[C@H](CC[C@@H]3[C@@H]2CC[C@]2(C)[C@@H]([C@@H](C)Cc4nc(C)ccc4Cl)CC[C@@H]32)C1 [Example 424]
3. CC[C@@]1(O)CC[C@@]2(C)[C@@H](CC[C@@H]3[C@@H]2CC[C@]2(C)[C@@H]([C@H](C)Cn4nnc(C)n4)CC[C@@H]32)C1 [Example 360]
4. COC[C@@]1(O)CC[C@H]2[C@H](CC[C@@H]3[C@@H]2CC[C@]2(C)[C@@H]([C@H](C)n4ncc(C#N)c4N)CC[C@@H]32)C1 [Example 153]

1. 5.00 to 6.00
2. > 7.00
3. 5.00 to 6.00
4. 5.00 to 6.00

====

molecular target: human GABAA receptors composed of the α4β3δ subunits (Homo sapiens (Human), UniProt O14764+P28472+P48169); test: α4β3δ SyncroPatch automated patch clamp assay; format: cell-based; settings: HEK cells, potentiation of submaximal GABA current, clamped at −120 mV
Sequence (P48169 36-554 limits assumed): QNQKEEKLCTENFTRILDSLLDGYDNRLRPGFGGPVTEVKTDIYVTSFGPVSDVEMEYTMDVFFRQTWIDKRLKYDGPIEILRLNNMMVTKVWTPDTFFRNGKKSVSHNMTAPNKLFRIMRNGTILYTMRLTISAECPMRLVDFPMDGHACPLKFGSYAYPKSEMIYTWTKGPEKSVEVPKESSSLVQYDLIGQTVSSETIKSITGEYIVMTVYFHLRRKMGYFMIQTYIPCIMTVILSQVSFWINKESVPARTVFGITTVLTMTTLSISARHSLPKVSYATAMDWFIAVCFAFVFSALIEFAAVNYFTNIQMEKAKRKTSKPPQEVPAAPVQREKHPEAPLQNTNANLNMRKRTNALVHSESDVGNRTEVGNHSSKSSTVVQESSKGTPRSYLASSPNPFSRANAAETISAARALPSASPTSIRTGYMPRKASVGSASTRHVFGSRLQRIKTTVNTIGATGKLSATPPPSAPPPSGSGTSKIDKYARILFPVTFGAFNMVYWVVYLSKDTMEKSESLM
Sequence (P28472 26-473 limits assumed): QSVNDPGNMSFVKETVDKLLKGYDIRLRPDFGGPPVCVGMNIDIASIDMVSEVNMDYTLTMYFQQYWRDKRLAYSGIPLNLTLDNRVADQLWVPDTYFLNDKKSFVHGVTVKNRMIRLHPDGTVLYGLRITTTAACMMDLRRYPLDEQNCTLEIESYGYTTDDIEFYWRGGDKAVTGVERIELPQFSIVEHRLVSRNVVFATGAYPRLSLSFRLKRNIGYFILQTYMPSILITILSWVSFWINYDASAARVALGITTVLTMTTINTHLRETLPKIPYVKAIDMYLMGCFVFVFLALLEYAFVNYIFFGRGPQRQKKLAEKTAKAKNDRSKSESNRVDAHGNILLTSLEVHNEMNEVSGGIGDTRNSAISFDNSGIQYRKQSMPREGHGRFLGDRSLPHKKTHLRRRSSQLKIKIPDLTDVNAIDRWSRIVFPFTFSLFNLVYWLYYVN
Sequence (O14764 17-452 limits assumed): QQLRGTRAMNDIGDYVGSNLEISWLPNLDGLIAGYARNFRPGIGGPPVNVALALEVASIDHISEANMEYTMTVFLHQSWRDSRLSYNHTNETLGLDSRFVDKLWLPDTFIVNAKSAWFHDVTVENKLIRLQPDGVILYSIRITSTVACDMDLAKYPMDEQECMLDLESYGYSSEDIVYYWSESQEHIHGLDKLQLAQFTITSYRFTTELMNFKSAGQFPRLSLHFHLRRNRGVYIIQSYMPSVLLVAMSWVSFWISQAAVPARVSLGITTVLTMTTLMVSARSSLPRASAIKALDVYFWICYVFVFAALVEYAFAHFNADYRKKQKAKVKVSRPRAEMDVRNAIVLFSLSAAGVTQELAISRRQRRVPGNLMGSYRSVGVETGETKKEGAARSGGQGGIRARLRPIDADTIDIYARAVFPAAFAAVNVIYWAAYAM
pEC50: −log10 of the molar value.
reported endpoint: pEC50

CCOC[C@@]1(O)CC[C@H]2[C@H](CC[C@@H]3[C@@H]2CC[C@]2(C)[C@@H]([C@@H](C)NC(=O)c4ccc(F)cc4F)CC[C@@H]32)C1 [Example 132]
≤ 6.00
CC[C@@]1(O)CC[C@H]2[C@H](CC[C@@H]3[C@@H]2CC[C@]2(C)[C@@H]([C@@H](C)Cn4ccc(C#N)n4)CC[C@@H]32)C1 [Example 272]
> 6.70
COC[C@@]1(O)CC[C@H]2[C@H](CC[C@@H]3[C@@H]2CC[C@]2(C)[C@@H]([C@@H](C)Nc4ccc(C#N)cn4)CC[C@@H]32)C1 [Example 41]
≤ 6.00
CC[C@@]1(O)CC[C@@]2(C)[C@H](CC[C@@H]3[C@@H]2CC[C@]2(C)[C@@H]([C@@H](C)Cn4ccc(C#N)n4)CC[C@@H]32)C1 [Example 61]
> 6.70
CCOC[C@@]1(O)CC[C@H]2[C@H](CC[C@@H]3[C@@H]2CC[C@]2(C)[C@@H]([C@H](C)Cn4nccc4C#N)CC[C@@H]32)C1 [Example 286]
6.00 to 6.70

Please supply pEC50 for each of the following items, keeping them in order.
1. CCC[C@@]1(O)CC[C@@]2(COC)[C@H](CC[C@H]3[C@@H]4CC[C@H]([C@H](C)Cn5nnc(C)n5)[C@@]4(C)CC[C@@H]32)C1 [Example 320]
2. COC[C@@]1(O)CC[C@H]2[C@H](CC[C@@H]3[C@@H]2CC[C@]2(C)[C@@H]([C@H](C)Cc4ccc(C#N)nc4)CC[C@@H]32)C1 [Example 405]

6.00 to 6.70
> 6.70

For each of the compounds below, state pEC50.
1. Cc1cnc(C[C@H](C)[C@H]2CC[C@H]3[C@@H]4CC[C@@H]5C[C@](C)(O)CC[C@@H]5[C@H]4CC[C@]23C)s1 [Example 430]
2. CCOC[C@@]1(O)CC[C@H]2[C@H](CC[C@@H]3[C@@H]2CC[C@]2(C)[C@@H]([C@@H](C)N(C)S(=O)(=O)c4cccc(C#N)n4)CC[C@@H]32)C1 [Example 72]
3. C[C@@H](Cc1ccc(C(F)(F)F)nc1)[C@H]1CC[C@H]2[C@@H]3CC[C@@H]4C[C@](C)(O)CC[C@@H]4[C@H]3CC[C@]12C [Example 443]

1. > 6.70
2. 6.00 to 6.70
3. > 6.70
